// data source = ChEMBL document CHEMBL3991601

Molecular target: DnaJ homolog subfamily A member 1 (Homo sapiens); also: in the data inactive means no Kd found up to 30 µM
Sequence (P31689 whole entry): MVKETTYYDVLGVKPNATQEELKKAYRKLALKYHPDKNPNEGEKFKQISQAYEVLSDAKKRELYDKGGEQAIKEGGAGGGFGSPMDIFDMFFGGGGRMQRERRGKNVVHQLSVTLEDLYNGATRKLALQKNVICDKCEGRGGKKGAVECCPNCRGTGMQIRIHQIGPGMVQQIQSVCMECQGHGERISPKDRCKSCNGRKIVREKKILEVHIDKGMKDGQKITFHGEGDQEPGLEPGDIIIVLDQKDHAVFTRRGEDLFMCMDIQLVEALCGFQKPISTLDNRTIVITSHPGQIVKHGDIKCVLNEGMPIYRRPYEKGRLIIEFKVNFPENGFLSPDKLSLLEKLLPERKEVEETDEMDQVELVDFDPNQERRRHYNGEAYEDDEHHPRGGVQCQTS
Where a name gives a salt, the structure may show the parent alone. Calls of active or inactive are those of the source.
// values below are reported Kd

Known results for molecules:
Molecule: C=CC(=O)N1CCC[C@H](n2c(=O)n(-c3ccc(Oc4ccccc4)cc3)c3c(N)ncnc32)C1
Kd: > 30 µM (inactive)

Molecule: CO[C@H]1C[C@@H]2CC[C@@H](C)[C@@](O)(O2)C(=O)C(=O)N2CCCC[C@H]2C(=O)O[C@H]([C@H](C)C[C@@H]2CC[C@@H](OP(C)(C)=O)[C@H](OC)C2)CC(=O)[C@H](C)/C=C(\C)[C@@H](O)[C@@H](OC)C(=O)[C@H](C)C[C@H](C)/C=C/C=C/C=C/1C [RIDAFOROLIMUS]
Kd: > 30 µM (inactive)

Molecule: Cc1nc2cc(-c3nn(C(C)C)c4ncnc(N)c34)ccc2o1
Kd: > 30 µM (inactive)

Molecule: C[C@@H](Oc1cc(C(=O)Nc2ccc(C(=O)N3CCN(C)CC3)cc2)nnc1N)c1c(Cl)ccc(F)c1Cl
Kd: > 30 µM (inactive)

Molecule: CCS(=O)(=O)N1CCN(c2ccc(Nc3ncc(C(N)=O)c(NC4CC4)n3)cc2)CC1 [Cerdulatinib Hydrochloride]
Kd: > 30 µM (inactive)

Param item: COc1ccc(S(=O)(=O)N(C(C)=O)c2ccccc2/C=C/c2cc[n+]([O-])cc2)cc1 [HMN-214] ; param system: DnaJ homolog subfamily A member 1 (Homo sapiens); output Kd: > 30 µM (inactive)

Param item: N#CC[C@H](C1CCCC1)n1cc(-c2ncnc3[nH]ccc23)cn1 [RUXOLITINIB] ; param system: DnaJ homolog subfamily A member 1 (Homo sapiens); output Kd: > 30 µM (inactive)

Param item: NC1(c2ccc(-c3nc4ccn5c(=O)[nH]nc5c4cc3-c3ccccc3)cc2)CCC1 [MK-2206] ; param system: DnaJ homolog subfamily A member 1 (Homo sapiens); output Kd: > 30 µM (inactive)

Param item: CC(=O)c1cnc2ccc(-c3cc(Cl)c(O)c(Cl)c3)nc2c1N[C@H]1CC[C@H](CN(C)C)CC1 ; param system: DnaJ homolog subfamily A member 1 (Homo sapiens); output Kd: > 30 µM (inactive)

Param item: COc1cc2c(Nc3ccc(Cl)c(Cl)c3F)ncnc2cc1OC[C@@H]1C[C@@H]2CN(C)C[C@@H]2C1 [TESEVATINIB] ; param system: DnaJ homolog subfamily A member 1 (Homo sapiens); output Kd: > 30 µM (inactive)

Param item: Cc1csc(-c2nnc(Nc3ccc(Oc4ncccc4-c4ccnc(N)n4)cc3)c3ccccc23)c1 [AMG-900] ; param system: DnaJ homolog subfamily A member 1 (Homo sapiens); output Kd: > 30 µM (inactive)

Param item: Cc1cc(Nc2ncnc3ccc(NC4=NC(C)(C)CO4)cc23)ccc1Oc1ccn2ncnc2c1 [TUCATINIB] ; param system: DnaJ homolog subfamily A member 1 (Homo sapiens); output Kd: > 30 µM (inactive)

Param item: CO[C@H]1C[C@@H]2CC[C@@H](C)[C@@](O)(O2)C(=O)C(=O)N2CCCC[C@H]2C(=O)O[C@H]([C@H](C)C[C@@H]2CC[C@@H](O)[C@H](OC)C2)CC(=O)[C@H](C)/C=C(\C)[C@@H](O)[C@@H](OC)C(=O)[C@H](C)C[C@H](C)/C=C/C=C/C=C/1C [SIROLIMUS] ; param system: DnaJ homolog subfamily A member 1 (Homo sapiens); output Kd: > 30 µM (inactive)

Param item: C[C@@H](NC(=O)c1ncnc(N)c1Cl)c1ncc(C(=O)Nc2cc(C(F)(F)F)c(Cl)cn2)s1 [TOVORAFENIB] ; param system: DnaJ homolog subfamily A member 1 (Homo sapiens); output Kd: > 30 µM (inactive)
